Examples of compounds with documented TGI follow.
- System: NCI-H460 lung
- EXPERIMENT_DESCRIPTION: NCI tumour cell line growth inhibition, 48 h

Answered examples (5):
{"columns": ["COMPOUND", "TARGET_OF_ASSAY", "RESULT"],
 "data": [
  ["O=C(CCc1ccccc1)CC1OC(=O)C(Cl)=C1Cl (configuration not stated)", "NCI-H460 lung", "96.2 µM"],
  ["N#CC1=C(N)OC2=C(CCOc3c2ccc2ccccc32)C1c1ccc(Br)cc1 (configuration not stated)", "NCI-H460 lung", "> 100 µM"],
  ["COC(=O)CC1=C(C)/C(=C/c2[nH]c(-c3ccc[nH]3)cc2OC)N=C1C", "NCI-H460 lung", "2.2 µM"],
  ["CCCCCCCCCCCCOC1C(COCCN2CCCCC2)OC2OC(C)(C)OC21 (configuration not stated)", "NCI-H460 lung", "3.48 µM"],
  ["CC(C)(C)OC(=O)N1N=CCC1c1ccccc1 (configuration not stated)", "NCI-H460 lung", "> 100 µM"]
]}

Just so you know, measured TGI for CCN(CC)c1c(C)nnn1C1OC(COC(C)=O)C(OC(C)=O)C(OC(C)=O)C1OC(C)=O (configuration not stated) came out at > 100 µM

Data provenance: PubChem BioAssay (NCI)
